Heads up, these compounds all have pIC50 values measured for RAF proto-oncogene serine/threonine-protein kinase (Homo sapiens).
Numbers only, as −log10 of the molar value.

{"columns": ["smiles_record", "pIC50"],
 "data": [
  ["CNC(=O)c1cc(Oc2ccc3nc(NC(=O)Nc4cc(C(F)(F)F)cc(C(F)(F)F)c4)sc3c2)ccn1", 6.25],
  ["CNC(=O)c1cc(Oc2ccc3nc(NC(=O)Nc4ccc(Cl)c(C(F)(F)F)c4)sc3c2)ccn1", 6.95],
  ["CNC(=O)c1cc(Oc2ccc3nc(NC(=O)Nc4ccc(Cl)c(Cl)c4)sc3c2)ccn1", 7.82]
]}

Now take the following compound into account.
Asked: Identify measured pIC50 corresponding to CNC(=O)c1cc(Oc2ccc3nc(NC(=O)c4cc(C(F)(F)F)cc(C(F)(F)F)c4)sc3c2)ccn1
Given back: 6.16
